# Tested on: U-251
# Assay Explanation: NCI tumour cell line growth inhibition, 48 h
Active and inactive are the calls of the source. Cut-off read from the data, not from the text of the source: active = GI50 up to about 1.1 µM and inactive = higher.
Labels: active, inactive

Molecule | Tested Target | Classification
Cc1n(CC(C)C)c2c([n+]1C)C(=O)c1ccccc1C2=O | U-251 | active
CC(C)=CCc1c(O)ccc2ccc(=O)oc12 [OSTHENOL] | U-251 | inactive
C/C(=N\NS(=O)(=O)c1ccc(C)cc1)C(CN(C)C)C(c1ccccc1)c1c(O)c2ccccc2oc1=O (stereo not given) | U-251 | inactive
COC(=O)[C@H](Cc1c[nH]c2ccccc12)NP(=O)(O)OC[C@H]1O[C@@H](n2cc(C)c(=O)[nH]c2=O)C[C@@H]1N=[N+]=[N-] | U-251 | inactive
CC1C2CC(C/C2=N/O)C1(C)C (stereo not given) | U-251 | inactive

* * *

This listing pairs compounds with measured GI50.
# Tested on: UACC-62
# Assay Explanation: NCI tumour cell line growth inhibition, 48 h
The source made the active and inactive calls. Rule as the data show it: active = GI50 up to about 1.1 µM and inactive = higher.

Compound | GI50
c1cc2sc1CSCCSCCSC2 | > 100 µM (inactive)
CC(=O)N(C(=O)CC(=O)N1N=C(c2ccccc2)C(/N=N/c2ccccc2[N+](=O)[O-])C1=O)c1ccc(Cl)cc1 (stereo not drawn) | > 10 µM (inactive)
CCCC(=O)c1ccc2c(ccc(=O)n2C)c1 | 24.3 µM (inactive)
NCP(=O)(O)OCC(=O)O | > 100 µM (inactive)
CC(C)Oc1cc(O)c2c(c1)OCC=C2CCC(=O)O | 26.9 µM (inactive)
CN1C(=O)c2ccccc2NC(=O)C12O[C@@H]2c1cccc(O)c1 (stereo partly drawn) | > 100 µM (inactive)
O=C(O)c1ccccc1/C=N\N(CCO)C1=NCCN1 | > 100 µM (inactive)
CCOc1nc(OCC)nc(-c2cccn2-c2ccccc2)n1 | 27.7 µM (inactive)
O=[N+]([O-])/C=C/c1cccc(F)c1 | 8.04 µM (inactive)
COc1ccc(-c2cc(-c3ccc(Nc4ccnc5cc(Cl)ccc45)cc3)nc(N)c2C#N)c2ccccc12 | > 100 µM (inactive)
CCOc1cccc(/C=N/N=C2\C(=O)Nc3c(Cl)cc(Cl)cc32)c1O | 58.2 µM (inactive)
C/C(CC(=O)Nc1cccc(Cl)c1C)=N\N=C(N)N | > 100 µM (inactive)
O=C(O)c1cnc(-n2[nH]c3c(c2=O)CCCC3)[nH]c1=O | > 100 µM (inactive)
O=C(C[n+]1ccccc1)NNC(=O)/C(=C/c1ccc2c(c1)OCO2)NC(=O)c1ccccc1 | > 67.9 µM (inactive)
C=C(Cl)[C@](Cl)(CBr)CC[C@@H](Br)C(C)(C)Cl [HALOMON] | 3.19 µM (inactive)
CC1OC(OC2C(O)COC(OC3C(C)OC(OC4C(OC(=O)[C@]56CCC(C)(C)C[C@@H]5C5=CCC7[C@@]8(C)C[C@H](O)[C@H](OC9OC(CO)C(O)C(O)C9O)[C@@](C)(CO)[C@@H]8CC[C@@]7(C)[C@]5(C)CC6)OCC(O)C4O)C(O)C3OC3OCC(O)(CO)C3O)C2O)C(O)C(O)C1O (stereo partly drawn) | 13.2 µM (inactive)
O=C(O)C(Cc1c[nH]c2ccccc12)N1C(=O)c2ccccc2C1=O (stereo not drawn) | > 100 µM (inactive)
Clc1cccc(-c2sc(-c3cccs3)cc2Cc2cccs2)c1 | > 10 µM (inactive)

* * *

# Tested on: CAKI-1
# Assay Explanation: NCI tumour cell line growth inhibition, 48 h
Counter-ions that a name gives are not always drawn. Calls of active or inactive are those of the source. Rule as the data show it: active = GI50 up to about 1.1 µM and inactive = higher.

Molecule | GI50
CN(C)CC1CCCC(CN(C)C)C1OC(=O)c1ccccc1 (stereo unspecified) | > 100 µM (inactive)
O=C(O)CCC(=O)Nc1ccc2ccccc2c1 | > 100 µM (inactive)
CC(=O)N(C)c1ccc(Nc2cc(C)nc3ccc4nc[nH]c4c23)cc1 [ACODAZOLE HYDROCHLORIDE] | 5.04 µM (inactive)
Cc1cc(Br)cc(C)c1NC(=O)C(=O)C(C(=O)c1ccc(Cl)c(Cl)c1)C1OC(=O)c2ccccc21 (stereo unspecified) | 34.8 µM (inactive)
COc1cc(N(CCC#N)CCC#N)ccc1C(=N/NC(=O)c1cc(Br)ccc1O)/N=N/c1ccccc1 | 27 µM (inactive)
CS(=O)(=O)c1nc(-c2cc3c(c(S(C)(=O)=O)n2)CCC3)cc2c1CCCC2 | 17 µM (inactive)
COc1nc2nccnc2c(=O)n1C | > 10 µM (inactive)
O=c1c2sc(=S)n(-c3ccc(F)cc3)c2ncn1/N=C/c1ccc(F)cc1F | 14.4 µM (inactive)
CC(C)=CCC[C@@H](C)C1=C(O)C(=O)C(C)=C(c2c(I)c(=O)n(C)c(=O)n2C)C1=O | > 100 µM (inactive)
COC(=O)c1c(C(=O)OC)c2ccccn2c1-c1cc(C)cc2c1C(=O)C=CC2=O | 5.08 µM (inactive)
COc1ccc(-c2cc(-c3ccc(Nc4ccnc5cc(Cl)ccc45)cc3)nc(N)c2C#N)c2ccccc12 | > 100 µM (inactive)
O=C(O)c1cnc(-n2[nH]c3c(c2=O)CCCC3)[nH]c1=O | > 100 µM (inactive)
S=C1SCN(C2CCCCCCCCCCC2)CN1C1CCCCCCCCCCC1 | > 100 µM (inactive)
OC(Cc1ccc2ccccc2n1)(C(F)(F)F)C(F)(F)F | > 10 µM (inactive)
CS(=O)(=O)O[C@H]1[C@H](O)c2ccccc2[C@@H]1N=[N+]=[N-] | > 100 µM (inactive)
CCN(CC)CCn1c(C(C)(C)C)nc2ccccc21 | > 100 µM (inactive)

* * *

# Test system: CCRF-CEM
# Assay Explanation: NCI tumour cell line growth inhibition, 48 h
Active and inactive are the calls of the source. Cut-off read from the data, not from the text of the source: active = GI50 up to about 1.1 µM and inactive = higher.
Labels: 1 = active, -1 = inactive

Molecule | Tested Target | Classification
Cc1coc2c1[C@@H](O)[C@@]1(C)[C@H](CCC[C@@H]1C)C2 | CCRF-CEM | -1
CC(=O)OC1C=C(C=O)C(O)(C=O)C2(C)CCCC(C)(C)C12 (stereo unspecified) | CCRF-CEM | 1
O=c1oc2cc(O)ccc2c2[nH]c3cc(O)ccc3c12 | CCRF-CEM | -1
CCOC(=O)CNC1=NNS(=O)(=O)c2ccccc21 | CCRF-CEM | -1
CC12C(=O)CC(CC1=O)C2(C)C | CCRF-CEM | -1
COc1ccccc1C#C/C=C\C#Cc1ccccc1C#N | CCRF-CEM | -1
CC(=O)CCCCCCCCCCCC[C@@H]1CC[C@H](C)[C@H](O)N1 | CCRF-CEM | -1
O=C(O)CCC(N/N=N/c1ccc(-c2nc3ccccc3[nH]2)cc1)C(=O)O (stereo unspecified) | CCRF-CEM | -1
O=C1N[C@@H]2c3c(Br)sc(Br)c3C(=O)[C@@H]2N1 | CCRF-CEM | 1
Oc1ccc(Cn2c(-c3ccc(O)cc3)nc3ccccc32)cc1 | CCRF-CEM | -1
COc1cc2ccc1OCc1cccc(n1)COc1ccc(cc1OC)/C=N\c1ccc(cc1)-c1ccc(cc1)/N=C\2 | CCRF-CEM | -1

* * *

# Test system: SN12C
# Assay Explanation: NCI tumour cell line growth inhibition, 48 h
Active and inactive are the calls of the source. Rule as the data show it: active = GI50 up to about 1.1 µM and inactive = higher.

Molecule | GI50
O=C1Nc2ccccc2/C1=N/Nc1nc(-c2ccc(Cl)c(Cl)c2)cs1 | > 100 µM (inactive)
NC(=S)SC1=NC(=O)C2(NN1)c1ccccc1-c1ccccc12 | > 10 µM (inactive)
COc1cc2c(cc1OC)C1(c3ccc(Cl)cc3)ON=C(c3ccccc3)N1CS2 (stereo unspecified) | 64.7 µM (inactive)
O=C1C(Cl)=C(Cl)C(=O)N1c1ccccc1Cl | > 100 µM (inactive)
CCCCCCCCC1=CCC(CN(C)C)C1=O (stereo unspecified) | 17.1 µM (inactive)
ClCCN1CCO/C1=N/c1ccc2c(c1)CCCC2 | 12.6 µM (inactive)

* * *

This listing pairs compounds with measured GI50.
# System: NCI-H460
# Assay Explanation: NCI tumour cell line growth inhibition, 48 h
The source made the active and inactive calls. Rule as the data show it: active = GI50 up to about 1.1 µM and inactive = higher.
Readout: GI50

Compound | Readout Value
CCCCN(CCCC)CC(O)c1cc(-c2ccc(C(F)(F)F)cc2)nc(-c2ccc(C(F)(F)F)cc2)c1 (stereo unspecified) | > 100 µM (inactive)
COC(=O)[C@]12CSC[C@H]1C[C@H](c1ccc(N(C)C)cc1)N2 | > 100 µM (inactive)
COc1cc2c(cc1O)[C@]1(Cc3ccc4c(c3C1=O)OCO4)N(C)CC2 | > 100 µM (inactive)
CCOc1ccc(OP2(=O)NC(=O)C=C(C)N2)cc1 (stereo unspecified) | > 100 µM (inactive)
CSCSCC(CO)NC(=O)/C=C\c1c(C)[nH]c(=O)[nH]c1=O (stereo unspecified) | 12.2 µM (inactive)
O=C1C(=Cc2cccc(Cl)c2)N=C(c2ccccc2)N1n1c(-c2ccccc2)nc2ccccc2c1=O | 6 µM (inactive)

Source: ChEMBL document CHEMBL1201862
